System: Escherichia coli
assay: Antimicrobial activity against Escherichia coli 10-1 after 18-24 hrs by two-fold serial dilution method
Assay type: functional
# log10 of MIC per entry
Log10 applied to MIC; unit prior to transform: µg/mL.

Some solved entries appear below for comparison.
{"compound": "CS(=O)(=O)O.Cc1ccc(CO/N=C2\\CN(c3nc4c(cc3F)c(=O)c(C(=O)O)cn4C3CC3)CC2CN)cc1C (racemic)", "observed_result": 1.81}
{"compound": "COc1ccc(CO/N=C2\\CN(c3nc4c(cc3F)c(=O)c(C(=O)O)cn4C3CC3)CC2CN)c(OC)c1OC.CS(=O)(=O)O (racemic)", "observed_result": 1.81}
{"compound": "COc1ccc(CO/N=C2\\CN(c3nc4c(cc3F)c(=O)c(C(=O)O)cn4C3CC3)CC2CN)cc1.CS(=O)(=O)O (racemic)", "observed_result": 1.51}
{"compound": "COc1ccc(CO/N=C2\\CN(c3nc4c(cc3F)c(=O)c(C(=O)O)cn4C3CC3)CC2CN)cc1OC.CS(=O)(=O)O (racemic)", "observed_result": 1.20}
{"compound": "CS(=O)(=O)O.NCC1CN(c2nc3c(cc2F)c(=O)c(C(=O)O)cn3C2CC2)C/C1=N\\OCc1ccc2c(c1)OCCO2 (racemic)", "observed_result": 1.20}
{"compound": "C[C@H]1COc2c(N3CCN(C)CC3)c(F)cc3c(=O)c(C(=O)O)cn1c23.C[C@H]1COc2c(N3CCN(C)CC3)c(F)cc3c(=O)c(C(=O)O)cn1c23.O", "observed_result": 0.60}

QUERY: # lookup: Escherichia coli log10 of MIC, key = CS(=O)(=O)O.NCC1CN(c2nc3c(cc2F)c(=O)c(C(=O)O)cn3C2CC2)C/C1=N\OCc1ccccc1 (racemic)
RESULT: 1.20

QUERY: Tell me log10 of MIC of CO/N=C1\CN(c2nc3c(cc2F)c(=O)c(C(=O)O)cn3C2CC2)CC1CN (configuration not stated) when tested on Escherichia coli.
RESULT: 0.90
